- ASSAY: Rat pharmacokinetic evaluation
- Format: in vivo, SD male rats
- STUDY CONDITIONS: male, Sprague-Dawley, plasma, po; SD rat, intragastric 5 mg/kg; read-out: AUClast po
Returns 1 (yes) if the recorded AUC(0-t) is greater than or equal to 4000 ng·h/mL, and 0 (no) otherwise.

The following molecules have reported results that may help.
>>> class_label("CCc1cc2c(N3CCC4(CC3)CC4)c(C#N)c(=O)[nH]c2cn1")
"1 (yes)"
>>> class_label("CC(C)(O)c1cc2c(N3CCC4(CC3)CC4)c(C#N)c(=O)[nH]c2cn1")
"1 (yes)"
>>> class_label("CCc1cc2c(N3CCC(C)(OC)CC3)c(C#N)c(=O)[nH]c2cn1")
"0 (no)"
>>> class_label("N#Cc1c(N2CCC3(CC2)CC3)c2ccncc2[nH]c1=O")
"0 (no)"
>>> class_label("Cc1cc2c(N3CCC4(CCC4)CC3)c(C#N)c(=O)[nH]c2cn1")
"0 (no)"

Next item in the queue.
Prompt line: Dear colleague, could you confirm whether N#Cc1c(N2CCC3(CC2)CC3)c2cc(C(O)C3CC3)ncc2[nH]c1=O (stereo not drawn) has AUC(0-t) at or above 4000 ng·h/mL?
Response line: 0 (no)
